Entries and their GI50
System: UACC-257
EXPERIMENT_SUMMARY: NCI tumour cell line growth inhibition, 48 h
The source made the active and inactive calls. Cut-off read from the data, not from the text of the source: active = GI50 up to about 1.1 µM and inactive = higher.

Take a look at these entries with their results.
N#CC1CCCC2SC(F)(F)C(F)(F)C12 (stereo not drawn) = > 100 µM (inactive)
CCCNC(=O)N1CC(CN2CCN(c3ccccc3)CC2)O/C1=N/C(=O)Nc1ccccc1 (stereo not drawn) = 46.8 µM (inactive)
COc1cc2c(cc1OC)c1c(OC)c(OC)cc3c1c1c2sc(=S)n1CC3 = > 100 µM (inactive)
CCOCN1COCN(C)C1=O = > 100 µM (inactive)
CC(O)CN1c2ccccc2Sc2ccc(Cl)cc21 (stereo not drawn) = > 10 µM (inactive)

Form field GI50 for item `CCOC(=O)Nc1ccc(S(=O)(=O)OC)cc1.CCOC(=O)Nc1ccc(S(=O)(=O)OC)cc1.Cc1cn(C2CC(O)C(CO)O2)c(=O)[nH]c1=O` on UACC-257: > 100 µM (inactive)

Form field GI50 for item O=c1c2ccccc2n2n1CC(O)C2 (stereo not drawn) on UACC-257: > 100 µM (inactive)

* * *

Tested on: ACHN
EXPERIMENT_SUMMARY: NCI tumour cell line growth inhibition, 48 h
The source made the active and inactive calls. No stated cut-off is given here; in the data, active = GI50 up to about 1.1 µM and inactive = higher.
Choose the fitting class; nothing outside active, inactive is accepted.

Some solved entries appear below for comparison.
COC(=O)C(/C(=N\O)C(=O)Nc1ccc(Br)cc1)c1nc2ccccc2nc1O (stereo not given) = inactive
O=C(CC(O)(C(F)(F)F)C(F)(F)F)C(c1ccccc1)C(O)(C(F)(F)F)C(F)(F)F (stereo not given) = inactive
O=NNc1cnc(O)nc1O = inactive

Request: What was the test verdict on `COc1cc2cc(C(=O)N3C[C@@H](CCl)c4c3cc(N)c3ccccc43)[nH]c2c(OC)c1OC` ?
Result: active

Request: What was the test verdict on `COC1=CC(=O)c2c(cc(COP(=O)(N(C)CCBr)N(C)CCBr)n2C)C1=O` ?
Result: active

* * *

Test system: HCT-15
Entries and their GI50

Take a look at these entries with their results.
Cc1cc(S(=O)(=O)/N=C(\NN)Nc2ccc(Cl)cc2)c(S)cc1Cl = 1.14 µM
C#CC1(O)C(COP(=O)(O)OC(COCCCCCCCCCCCCCCCCCC)COP(=O)(O)OCC2OC(n3cc(C)c(=O)[nH]c3=O)CC2N=[N+]=[N-])OC(n2ccc(N)nc2=O)C1O (stereo not drawn) = 0.582 µM
CCc1cc(Cc2cc(CC)c(NC(=O)C(=O)CC(=O)c3sc(-c4cccnc4)nc3C)c(CC)c2)cc(CC)c1NC(=O)C(=O)CC(=O)c1sc(-c2cccnc2)nc1C = > 100 µM

Recorded GI50 (molecule `O=C(CN1CCOCC1)NC1=Nc2ncccc2C(=O)NN1` ): > 10 µM

Recorded GI50 (molecule `N=C(N)N/N=C/c1c(-c2ccc(Cl)c([N+](=O)[O-])c2)nc2sc(Cl)cn12` ): 2.29 µM

Recorded GI50 (molecule `N#Cc1nc(C#N)n(C(=O)c2ccccc2)c1NC(=O)c1ccccc1` ): > 100 µM

Recorded GI50 (molecule Fc1ccccc1C1SCC2=Nc3ccccc3CN21 (stereo not drawn) ): > 100 µM

* * *

Entries and their GI50
Tested on: HT-29
EXPERIMENT_SUMMARY: NCI tumour cell line growth inhibition, 48 h
Activity calls are given as the source filed them. No stated cut-off is given here; in the data, active = GI50 up to about 1.1 µM and inactive = higher.

Take a look at these entries with their results.
CCN(CC)c1ccc2c(c1)Oc1ccc(N(CC)CC)cc1C21Oc2ccccc2-c2c1c1ccccc1n2CC (stereo unspecified) = 1.22 µM (inactive)
CC(C)[C@H]1NC(=O)[C@H]2N=C(S[C@H]2C)[C@@H]2CCCN2C(=O)[C@H](Cc2ccccc2)NC(=O)[C@@H]2CSC(=N2)[C@@H](Cc2ccccc2)NC(=O)[C@@H]2CSC1=N2 = 25.8 µM (inactive)
CCOC(=O)/C1=C(\C)N(c2ccc(C)cc2)C(=O)c2ccccc2C(=O)c2c(O)ccc(O)c21 = 19.5 µM (inactive)
O=C1Cc2ccccc2N1c1c(Cl)cccc1Cl = 34.3 µM (inactive)
CCCCCCCCCCCCC(=O)NCC(=O)NC(Cc1ccccc1)C(=O)Oc1ccc([N+](=O)[O-])cc1 (stereo unspecified) = 82.2 µM (inactive)

Recorded GI50 (compound `CCOC(=O)c1c(N2CCCC2)[nH]c(=O)c(C(c2c(O)c(C(=O)OCC)c(N3CCCC3)[nH]c2=O)C(C)C)c1O` ): > 100 µM (inactive)

Recorded GI50 (compound `N#CCN1CCOCCOCCN(CC#N)CCOCCOCC1` ): > 100 µM (inactive)

Data credit: ChEMBL document CHEMBL1201862
